EXPERIMENTAL DETAILS: Body and organ weights of cynomolgus monkeys (Example 45)
Format: in vivo
SETTINGS: day 8; escalating dose regimen
Reported body weights by item:
All answers are understood in g, so give the number only.

See these solved cases before continuing.
ISIS 416850: MOE gapmer, nucleobases 1275 to 1318 of SEQ ID NO: 1 (Table 8) (antisense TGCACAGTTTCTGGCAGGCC; MOE gapmer, wing and gap sizes not given here); 2430
ISIS 416838: MOE gapmer, nucleobases 1018 to 1042 of SEQ ID NO: 1 (Table 6) (antisense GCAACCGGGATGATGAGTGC; MOE gapmer, wing and gap sizes not given here); 2592
ISIS 416864: MOE gapmer, nucleobases 1275 to 1318 of SEQ ID NO: 1 (Table 8) (antisense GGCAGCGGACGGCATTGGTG; MOE gapmer, wing and gap sizes not given here); 2784
ISIS 416858: MOE gapmer, nucleobases 1275 to 1318 of SEQ ID NO: 1 (Table 8) (antisense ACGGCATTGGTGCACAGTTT; MOE gapmer, wing and gap sizes not given here); 2740

For the substance ISIS 417002: MOE gapmer, nucleobases 1275 to 1318 of SEQ ID NO: 1 (Table 8) (antisense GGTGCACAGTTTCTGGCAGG; MOE gapmer, wing and gap sizes not given here) , report body weights.
2523
